test system: HOP-62 NSCLC; test: NCI tumour cell line growth inhibition, 48 h
A collection of compounds and their measured GI50
endpoint.label: GI50

compound	system.tested	experimental.value
CCN(CC)c1ccc2cc(C(=O)Nc3ccc4[nH]c(C(=O)N5C[C@@H](CCl)c6c5cc(OC(=O)Nc5ccccc5)c5[nH]cc(C)c65)cc4c3)oc2c1	HOP-62 NSCLC	104000 nM
COc1cc(N2C(=O)[C@H](O)C2c2ccc(SC)cc2)cc(OC)c1OC (stereo partly drawn)	HOP-62 NSCLC	< 10 nM
O=C(NN1C(=O)CSC12CCCCC2)c1[nH]c2ccc(Br)cc2c1-c1ccccc1	HOP-62 NSCLC	23600 nM
CN1C(=O)N(C)C2C1NN=c1s/c(=C\c3ccc(C(F)(F)F)cc3)c(=O)n12 (stereo not drawn)	HOP-62 NSCLC	1310 nM
CC(C)NCCCn1c(Sc2cc3c(cc2I)OCO3)nc2c(N)ncnc21	HOP-62 NSCLC	263 nM
CNCCCNCCCCNCCCN1C(=O)c2ccc3c4c(ccc(c24)C1=O)C(=O)N(CCCNCc1ccccc1OC)C3=O	HOP-62 NSCLC	2330 nM
O=C1c2c(c3c4ccccc4[nH]c3c3ccc4ccccc4c23)C(=O)N1CCN1CCNCC1	HOP-62 NSCLC	1810 nM
COc1cc2c(cc1OCCCn1c(-c3ccccn3)nc3ccccc31)N=C[C@@H]1CCCN1C2=O	HOP-62 NSCLC	2920 nM

###

A collection of molecules and their measured TGI
test system: MDA-MB-435; assay: NCI tumour cell line growth inhibition, 48 h
endpoint.label: TGI

molecule	endpoint.label	experimental.value
CC1(/C=C/CCSc2ccccc2)CC(=O)C2CC1C2(C)C (centres undefined)	TGI	> 87.6 µM
CC(C)(C)OC(=O)N/N=C(/N)Cc1ccc(Cl)cc1	TGI	> 100 µM
COc1cc2c(c(OC)c1)/C(=C/Sc1ccccc1)C(=O)N(C(C)(C)C)C2	TGI	55.2 µM
C=C(Br)CNC(=O)Nc1ccc(Cl)c(Cl)c1	TGI	53.2 µM
Cn1c(=O)c2[nH]c(CCNC(=O)c3ccccc3)nc2n(C)c1=O	TGI	> 100 µM
CC1=C2[C@@H](CC1)[C@]1(C)O[C@@](c3ccccc3)(C[C@H]1OC(=O)CO)[C@H]2OC(=O)/C=C/c1ccccc1	TGI	35.9 µM
O=S(=O)(c1ccc(Cl)cc1)C(Cl)(Cl)Cl	TGI	4.7 µM
CNC(=O)C1(N)c2ccccc2C=Cc2ccccc21	TGI	> 100 µM
CC(=O)Nc1ccc(C(O)/C(=N/N)c2nc3ccc(Cl)cc3[nH]c2=O)cc1 (centres undefined)	TGI	> 100 µM
CN1c2ccccc2C(=O)NC12CCN(CCCC(=O)c1ccc(F)cc1)CC2	TGI	> 100 µM
COC(=O)[C@H](CCSC)NC(=O)N[C@H](C)c1ccccc1	TGI	> 100 µM
O=C(O)c1ccc(C(=O)c2ccccc2)c(C(=O)O)c1	TGI	> 100 µM
COc1ccc(-c2nc(Nc3cc(C)[nH]n3)c3ccccc3n2)cc1	TGI	> 100 µM
CC(=O)/C=C/c1cn(C(=O)OC(C)(C)C)c2ccc(Br)cc12	TGI	25.9 µM
CSc1nc2c(c(=O)[nH]1)N=C(c1ccc([N+](=O)[O-])cc1)CC(c1ccccc1)N2 (centres undefined)	TGI	> 100 µM
Cc1cc(S(=O)(=O)/N=C(/N)Nc2ccccc2O)c(SCc2ccccc2)cc1Cl	TGI	32 µM
O=c1ssc(=Nc2ccccc2)n1-c1ccccc1	TGI	> 100 µM
COCc1nc(N)nc(N2N=C(C)CC2(C)C)n1	TGI	> 100 µM
C/C(=N\Nc1ccc([N+](=O)[O-])cc1[N+](=O)[O-])c1sc(-n2nc(-c3ccccc3)cc2-c2ccccc2)nc1C	TGI	> 100 µM

###

test system: MCF7 breast; assay: NCI tumour cell line growth inhibition, 48 h
A collection of compounds and their measured GI50

compound	system.tested	GI50
O=c1[nH]c(=O)n(C2CC(O)C(COP(=O)(OCc3ccc([N+](=O)[O-])o3)N(CCCCCl)CC(O)CO)O2)cc1F (centres undefined)	MCF7 breast	< 10 nM
CC(=O)/C=C/c1cn(C(=O)OC(C)(C)C)c2ccc(Br)cc12	MCF7 breast	9710 nM
O=C(NN1C(=O)CSC12CCCCC2)c1[nH]c2ccc(Br)cc2c1-c1ccccc1	MCF7 breast	14600 nM
CCCCCCCCCCCCCCCCCC[n+]1ccc2c(C)c3c(c(C)c2c1)c1cc(O)ccc1n3CC	MCF7 breast	2750 nM
CCCN(CCS(C)(=O)=O)Cc1ccc(-c2ccc3ncnc(Nc4ccc(OCc5cccc(F)c5)c(Cl)c4)c3c2)o1	MCF7 breast	> 20200 nM
COc1ccc(-c2nc(Nc3cc(C)[nH]n3)c3ccccc3n2)cc1	MCF7 breast	1710 nM
O=C(Nc1ccc(OCc2nnc(-c3ccc(Cl)cc3)o2)c(F)c1)Nc1ccc(Cl)c(C(F)(F)F)c1	MCF7 breast	1920 nM
O=C1/C(=C/c2ccccc2[N+](=O)[O-])Cc2ccccc21	MCF7 breast	1380 nM
CN=c1ccc2nc3ccc(N)cc3sc-2c1	MCF7 breast	1630 nM

###

tested on: PC-3 prostate; assay: NCI tumour cell line growth inhibition, 48 h

compound	TGI
OCc1ccc(N2CCCC2c2ccccc2)cc1Cl (stereo unspecified)	29 µM
Cc1cc(C)c(-n2[nH]c(=O)n(C)c2=O)c(C)c1	> 100 µM
COc1cc2c(cc1OCCCn1c(-c3ccccn3)nc3ccccc31)N=C[C@@H]1CCCN1C2=O	> 30.6 µM
COc1c(F)c(F)c(/C(O)=C\c2nc3ccccc3[nH]c2=O)c(F)c1F	> 10 µM
O=S(=O)(Nc1cc(Sc2cccc3cccnc23)c(O)c2ccccc12)c1ccc(F)cc1	12.1 µM
COc1ccc(-c2[nH]c3ccccc3c2-c2ccc(OC)cc2)cc1	25.3 µM
COc1cc2c(c(OC)c1)/C(=C/Sc1ccccc1)C(=O)N(C(C)(C)C)C2	> 100 µM
CN1CCN(C(=O)c2cc(-c3ccc4ncnc(N5CCc6cc(F)c(Cl)cc65)c4c3)cnc2N)CC1	3.78 µM
CC1=NNC(=O)C1C1CC(c2c[nH]c3ccccc23)=NNC1=O (stereo unspecified)	> 100 µM
CCN1CCC(C)OP1(=O)Cc1ccccc1 (stereo unspecified)	> 100 µM
O=C1CCCN1C(=O)CS(=O)(=O)c1ccccc1	> 100 µM

###

system: ACHN renal; assay: NCI tumour cell line growth inhibition, 48 h
A collection of molecules and their measured TGI

molecule	TGI (µM)
COc1ccc(-c2[nH]c3ccccc3c2-c2ccc(OC)cc2)cc1	28.3
C1CCC([PH+](C2CCCCC2)C2CCCCC2[PH+](C2CCCCC2)C2CCCCC2)CC1.[Au].[CH-]1CCCCC1CC1CCCC[N-]1 (stereo unspecified)	2.1
CC(=O)/C=C/c1cn(C(=O)OC(C)(C)C)c2ccc(Br)cc12	24.8
COc1cc2nc(N3CCCC3)nc(NCCc3ccccc3)c2cc1OC	3.04

###

system: HCT-116 colon; experiment: NCI tumour cell line growth inhibition, 48 h
endpoint.label: TGI

compound	endpoint.label	experimental.value
O=C(/C=C/c1cc2ccccc2[nH]c1=O)/C=C/c1cc2ccccc2[nH]c1=O	TGI	2.09 µM
COc1ccccc1-c1cc(=O)c2cc(C)cnc2[nH]1	TGI	> 100 µM
COC(=O)[C@@H]1[C@H](OC(C)=O)CCC2[C@@]3(C[C@@H](c4ccoc4)O[C@@H]3OC)[C@H](C)CC[C@]21C(=O)OC (stereo partly drawn)	TGI	> 25 µM
N#C[C@H](OC1OC(COC2OC(CO)C(O)C(O)C2O)C(O)C(O)C1O)c1ccccc1 (stereo partly drawn)	TGI	> 250 µM
CN(C)c1ccc(NN=C2SC(=Nc3ccccc3)C(=Nc3ccccc3)S2)cc1	TGI	> 100 µM
CC(C)(C)c1cc2c(OC/C=C/c3ccccc3)c(c1)Cc1cc(C(C#N)(OC/C=C/c3ccccc3)OC/C=C/c3ccccc3)cc(c1OC/C=C\c1ccccc1)Cc1cc(C(C)(C)C)cc(c1OC/C=C/c1ccccc1)Cc1cc(C(C#N)(OC/C=C\c3ccccc3)OC/C=C/c3ccccc3)cc(c1OC/C=C\c1ccccc1)C2 (stereo not drawn)	TGI	> 100 µM
c1ccc2c(c1)C1CCCCCC21N1CCOCC1 (stereo not drawn)	TGI	> 100 µM
O=c1nc(NC2CCCCO2)ccn1CCO (stereo not drawn)	TGI	> 100 µM

###

tested on: RXF 393 renal; experiment: NCI tumour cell line growth inhibition, 48 h
endpoint.label: GI50

molecule	endpoint.label	experimental.value
O=S(=O)(Nc1cc(Sc2cccc3cccnc23)c(O)c2ccccc12)c1ccc(F)cc1	GI50	1970 nM
O=C1NC(=O)C(N2C(=O)c3ccccc3C2=O)CC1O (configuration not stated)	GI50	> 100000 nM
CCCCCCCCCCCCCCCCCC[n+]1ccc2c(C)c3c(c(C)c2c1)c1cc(O)ccc1n3CC	GI50	1570 nM
C[C@@H]1CN(Cc2ccc(F)cc2)[C@@H](C)CN1C(=O)c1cc2c(C(=O)C(=O)N(C)C)cn(C)c2cc1Cl	GI50	12300 nM
Fc1ccc(/C=N/n2c(-c3ccc(F)c(Cl)c3)nn(CNc3ccccc3C(F)(F)F)c2=S)cc1	GI50	59400 nM
C=CC(=O)Nc1cccc(Oc2nc(Nc3ccc(N4CCN(C)CC4)cc3)nc3ccsc23)c1	GI50	1540 nM
CCCN(CCS(C)(=O)=O)Cc1ccc(-c2ccc3ncnc(Nc4ccc(OCc5cccc(F)c5)c(Cl)c4)c3c2)o1	GI50	24900 nM
